Tested target: T1, human LAIR1 extracellular domain (ECD) protein with 6 HIS tag at the C-terminus (human, UniProt Q6GTX8 22-165)
T1 construct: Produced recombinantly in HEK293 cells; the whole entry is named here; also called LAIR1 ECD; LAIR1-ECD
T1 chain: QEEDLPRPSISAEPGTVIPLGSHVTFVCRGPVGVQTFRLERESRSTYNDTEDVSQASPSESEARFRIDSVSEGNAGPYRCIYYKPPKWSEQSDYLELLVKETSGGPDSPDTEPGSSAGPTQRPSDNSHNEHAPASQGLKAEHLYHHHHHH
Test method notes: ELISA, LAIR1 ECD coated, mAb titrated, anti-rabbit HRP
# pEC50 per record follows
In textbook form, pEC50 equals minus log to base ten of the concentration in mol/L.

| Binder | pEC50 |
| --- | --- |
| LA-142-1 (antibody, V domains shown, Rabbit monoclonal IgG) VH: AAVKESGGRLVTPGTPLTLTCTASGFSLYKYNIQWVRQAPGKGLEYIGASTYAGYTYYASWAKGRVTISRTSTTVDLKMTSPTTEDTATYFCARHIDGDYSGYALWGPGTLVTVSS VL: ELVLTQTPASVSAAVGGTVTIKCQASQSIGTWFAWYQQKPGQSPKLLIYGPSKLASGVPPRFKGSGSGTEFTLTISDLECADAATYYCQSTYFGVDYLGGTFGGGTEVEIK | 9.60 |
| LA-87 (antibody, V domains shown, Rabbit monoclonal IgG; also called mAb LA-87) VH: QSVKESGGRLVTPGGSLTLTCTVSGFSLSNYNIQWVRQAPGKGLEWIGFISPAGNGYYASWAKGRFTISKASSTTVELKMTSLTASDTATYFCARHWDLWGPGTLVTISS VL: ELVLTQTASSVSAAVGGTVTISCQSSQSVYSNYLSWFQQKPGQPPKELVYWTSTLQSGVPSRFSGSGSGTQFTLTISDLECDDAATYYCLGGYSGWFYAFGGGTEVVVK | 10.22 |
| LA-192 (antibody, V domains shown, Rabbit monoclonal IgG; Called an agonist antibody) VH: EQSLEESGGRLVTPGTPLTLTCTASGFSLSSYYMTWVRQAPGKGLEWIGYMHTGGGVVYASWATGRFTISRTSTTVDLKITSPTTEDTATYFCARSHAGYSTINRLDLWGVGTLVTISS VL: ELDLTQTPSSVSAAVGGTVTISCQSSPSVYTNNLSWFQQKPGQPPKLLIYDASKLESGVPSRFRGSGSGTQFTLTISDVQCDDAATYYCAGAYLSDSDTTFGGGTELEIK | 10.40 |

Request: Field request: pEC50 | item: LA-111 (antibody, V domains shown, Rabbit monoclonal IgG) VH: EQSVEESGGGLVAPGGSLTLTCTVSGFSLSNYHMGWVRQAPGKGLEWIGYIYTHGTTFYASWAKGRFTISKTSTTVDLKMTRLTTGDTATYFCARGGYADYNILYNLWGPGTLVTISS VL: ELVLTQTPASVEAAVGGTVTINCQASQSISSYLAWYQQKPGQPPKLLIYDASDLASGVPSRFKGSRSGTEFTFTISDLECADAATYYCQTYDSSTTAAFGGGTEVEIK
Response: 10.05

Request: Field request: pEC50 | item: LA-117 (antibody, V domains shown, Rabbit monoclonal IgG) VH: QSVKESGGDLVKPGASLTLACTASGFSFSDGYYMCWVRQAPGKGLEWIGCIHSSSGSIYYASWAKGRFTISKTSSTMVTLQMSSLTAADTATYFCARDSESYGYNPCELWGPGTLVTISS VL: ELDLTQTPASVSEAVGGTVTIKCQASQTISNYLAWYQQKPGQRPKLLIYAASSLASGVSSRFRGSRSGTEYTLTITDLECDDAATYYCQCTYYGTTYVGGAFGGGTELEIK
Response: 10.10
